Just for reference, patent US20190203248A1 is where these values come from.

The following binders are listed with their measured Kd values.
- System Under Test: T1, human serum albumin (human, UniProt P02768 25-609)
- T1 construct: also called HSA; HuSA
- Experiment Notes: SPR (Biacore), albumin immobilized on CM5 chip
Respond with the bare value in nM.

The cases that follow already have their Kd on record.
**Query** I'd like to know its Kd. The binder in question is SABA2.1 (designed binder, His6-tagged Adnectin core 2) MGVSDVPRDLEVVAATPTSLLISWPKYDKTGHYYRITYGETGGNSPVQEFTVPTRQTTATISGLKPGVDYTITVYAVSKDDYYPHEHRPISINYRTEIDKPSQHHHHHH
**Result** 33.8

**Query** # Kd lookup, item SABA3.1 (designed binder, His6-tagged Adnectin core 3) MGVSDVPRDLEVVAATPTSLLISWSNDGPGLSYYRITYGETGGNSPVQEFTVPSSQTTATISGLKPGVDYTITVYAVSYYTKKAYSAGPISINYRTEIDKPSQHHHHHH
**Result** 863

**Query** Look up Kd: SABA4.1 (designed binder, His6-tagged Adnectin core 4; has a scaffold mutation; the scaffold-perfect version is SABA5) MGVSDVPRDLEMVAATPTSLLISWEDDSYYSRYYRITYGETGGNSPVQEFTVPSDLYTATISGLKPGVDYTITVYAVTYDVTDLIMHEPISINYRTEIDKPSQHHHHHH
**Result** 412

Next:
**Query** I'd like to know its Kd. The binder in question is SABA1.1 (designed binder) MGVSDVPRDLEVVAATPTSLLISWHSYYEQNSYYRITYGETGGNSPVQEFTVPYSQTTATISGLKPGVDYTITVYAVYGSKYYYPISINYRTEIDKPSQHHHHHH
**Result** 47.2
